Values compiled from patent US12454534B2.

study system: HPK1 kinase (aa1-346, Life Technologies) (Homo sapiens, UniProt Q92918)
Sequence (Q92918 1-346): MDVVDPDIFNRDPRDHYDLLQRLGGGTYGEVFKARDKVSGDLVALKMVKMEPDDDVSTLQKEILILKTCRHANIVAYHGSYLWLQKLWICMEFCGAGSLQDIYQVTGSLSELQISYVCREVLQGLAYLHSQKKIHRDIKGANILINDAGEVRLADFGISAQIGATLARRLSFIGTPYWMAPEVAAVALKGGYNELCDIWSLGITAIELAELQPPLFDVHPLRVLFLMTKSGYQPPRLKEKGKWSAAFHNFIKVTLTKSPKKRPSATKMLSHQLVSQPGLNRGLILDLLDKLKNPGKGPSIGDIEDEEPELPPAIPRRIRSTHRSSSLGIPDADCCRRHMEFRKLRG
Parameter class (string): assigned from measured IC50. Ranges: bottom end = under 0.04 µM, midrange = from 0.04 µM up to 0.07 µM, top end = 0.07 µM and over

-- ask Classify this compound: `Cc1cc(-c2c[nH]c3ncc(-c4cc(C)c5c(c4)CN(CCC(=O)NCCO)CC5)nc23)ccc1C(=O)N(C)C`
-- reply midrange

-- ask How about this compound: `Cc1cc(-c2c[nH]c3ncc(-c4cc(C)c5c(c4)CN(CCC(=O)NCC(C)(C)O)CC5)nc23)ccc1C(=O)N(C)C`
-- reply midrange

-- ask What about `Cc1cc(-c2c[nH]c3ncc(-c4cc(C)c5c(c4)CN(CCC(=O)NCCCO)CC5)nc23)ccc1C(=O)N(C)C` ?
-- reply midrange

-- ask Now this one: `Cc1cc(-c2c[nH]c3ncc(-c4cc(C)c5c(c4)CN(C)CC5)nc23)ccc1C(=O)N(C)C[C@@H](C)O`
-- reply top end

-- ask Please give the result for `COc1cc(-c2cnc3[nH]cc(-c4ccc(C(=O)N(C)C[C@H](C)O)c(C)c4)c3n2)cc2c1CN(C)CC2` too.
-- reply bottom end

-- ask Now consider `Cc1cc(-c2c[nH]c3ncc(-c4cc(C)c5c(c4)CCN(C)C5)nc23)ccc1C(=O)N(C)C` and answer again.
-- reply midrange

-- ask Same read-out for `COc1cc(-c2cnc3[nH]cc(-c4ccc(C(=O)N(C)C)cc4)c3n2)cc2c1CN(C)CC2` ?
-- reply bottom end

-- ask Thanks! And `Cc1cc(-c2cnc3[nH]cc(-c4ccc(C(=O)N(C)C)cc4)c3n2)cc2c1CCN(CCN1CCC(C)(O)CC1)C2` ?
-- reply bottom end

-- ask Would you kindly repeat that for `Cc1cc(-c2cnc3[nH]cc(-c4ccc(C(=O)N(C)C)cc4)c3n2)cc2c1CCN(C)C2` ?
-- reply bottom end

-- ask Please answer likewise for `Cc1cc(-c2c[nH]c3ncc(-c4cc(C)c5c(c4)CN(CCC(=O)N[C@H]4CC[C@H](O)C4)CC5)nc23)ccc1C(=O)N(C)C`
-- reply top end

-- ask Next record, please: `CCN1CCc2c(C)cc(-c3cnc4[nH]cc(-c5ccc(C(=O)N(C)C)c(C)c5)c4n3)cc2C1`
-- reply top end

-- ask Let us now turn to `COc1cc(-c2cnc3[nH]cc(-c4ccc(C(=O)N(C)C[C@@H](C)O)cc4)c3n2)cc2c1CN(C)CC2`
-- reply bottom end

-- ask Request: `Cc1cc(-c2cnc3[nH]cc(-c4ccc(C(=O)N(C)C[C@H](C)O)cc4)c3n2)cc2c1CCN(CCN1CCOCC1)C2`
-- reply midrange

-- ask Also, `Cc1cc(-c2cnc3[nH]cc(-c4ccc(C(=O)N(C)C)cc4)c3n2)cc2c1CCN(CCC(=O)NCCN1CCN(C)CC1)C2` please.
-- reply midrange

* * *

Test system: HEK293 cells
assay method text: HEK293 cell viability assay (CellTiter-Glo)
Assay type: cell-based
details: 3-day exposure, 0 to 10 μM
endpoint name: pIC50
Keep in mind that pIC50 stands for -log10 of concentration in molar terms.

-- ask // returns reported pIC50 for input `Cc1cc(-c2cnc3[nH]cc(-c4ccc(C(=O)N(C)CC(C)(C)O)cc4)c3n2)cc2c1CCN(C)C2`
-- reply 5.66

* * *

Tested on: HEK293 cells
assay method text: HEK293 cell viability assay (CellTiter-Glo)
Assay type: cell-based
details: Homo sapiens, HEK293, 72 h, 3-day exposure, 0 to 10 μM
endpoint name: pIC50
Scale note: pIC50 = -log10(concentration in M).

-- ask Requested field: pIC50. Item: `Cc1cc(-c2c[nH]c3ncc(-c4cc(C)c5c(c4)CN(C)CC5)nc23)ccc1C(=O)N(C)C`
-- reply 5.48

-- ask How about this compound: `COc1cc(-c2cnc3[nH]cc(-c4ccc(C(=O)N(C)C[C@H](C)O)c(C)c4)c3n2)cc2c1CN(C)CC2`
-- reply 5.26

-- ask Consider next the compound `Cc1cc(-c2cnc3[nH]cc(-c4ccc(C(=O)N(C)C)cc4)c3n2)cc2c1CCN(C)C2` in the same way.
-- reply 5.44

-- ask Same read-out for `Cc1cc(-c2cnc3[nH]cc(-c4ccc(C(=O)N(C)CC(C)(C)O)cc4)c3n2)cc2c1CCN(C)C2` ?
-- reply 5.41

* * *

study system: HPK1 kinase (aa1-346, Life Technologies) (Homo sapiens, UniProt Q92918)
Construct: HPK1 kinase (aa1-346, Life Technologies); purchased Life Technologies
assay method text: HPK1 Kinase Activity Assay at 1 mM ATP (TR-FRET)
Type: biochemical
details: HPK1 40 nM, read-out: Enzymatic activity IC50
Method: HPK1 Kinase Activity Assay at 1 mM ATP Compounds disclosed herein were tested for inhibition of HPK1 kinase (aa1-346, Life Technologies) activity in assays based on the time-resolved fluorescence-resonance energy transfer (TR-FRET) methodology. […] The TR-FRET signals (ratio of fluorescence emission at 665 nm over emission at 620 nm with excitation at 337 nm wavelength) were recorded on a PHERAstar FS plate reader (BMG Labtech). […]
Class assignment keyed on IC50, ranges b0 (below 20 nM), b1 (20 nM to below 70 nM), b2 (70 nM or more)

-- ask Given `Cc1cc(-c2c[nH]c3ncc(-c4cc(C)c5c(c4)CN(CCC(=O)NCCN4CCN(C)CC4)CC5)nc23)ccc1C(=O)N(C)C` , name the class its IC50 places it in.
-- reply b2

-- ask Can you check `Cc1cc(-c2cnc3[nH]cc(-c4ccc(C(=O)N5CC6(COC6)C5)cc4)c3n2)cc2c1CCN(C)C2` next?
-- reply b0

-- ask Do the same for `CNC(=O)CCN1CCc2c(C)cc(-c3cnc4[nH]cc(-c5ccc(C(=O)N(C)C)c(C)c5)c4n3)cc2C1` please
-- reply b1

-- ask Next compound up: `Cc1cc(-c2c[nH]c3ncc(-c4cc(C)c5c(c4)CN(CCC(=O)N(C)C)CC5)nc23)ccc1C(=O)N(C)C`
-- reply b1

-- ask Follow-up entry: `Cc1cc(-c2c[nH]c3ncc(-c4cc(C)c5c(c4)CN(C)CC5)nc23)ccc1C(=O)N1CC(O)C1`
-- reply b1

-- ask Same for `Cc1cc(-c2c[nH]c3ncc(-c4cc(C)c5c(c4)CN(CCC(=O)N4CCN(C)CC4)CC5)nc23)ccc1C(=O)N(C)C`
-- reply b2

-- ask Next up: `Cc1cc(-c2c[nH]c3ncc(-c4cc(C)c5c(c4)CN(CCC(=O)NC4CCOCC4)CC5)nc23)ccc1C(=O)N(C)C`
-- reply b1

-- ask How about `Cc1cc(-c2cnc3[nH]cc(-c4ccc(C(=O)N(C)C[C@@H]5CCOC5)cc4)c3n2)cc2c1CCN(C)C2` ?
-- reply b0

-- ask Let us now turn to `Cc1cc(-c2c[nH]c3ncc(-c4cc(C)c5c(c4)CN(CCC(=O)N[C@H]4CC[C@H](O)CC4)CC5)nc23)ccc1C(=O)N(C)C`
-- reply b2

-- ask Repeat for the following compound: `COc1cc(-c2cnc3[nH]cc(-c4ccc(C(=O)N(C)C[C@H](C)O)cc4)c3n2)cc2c1CN(C)CC2`
-- reply b0

-- ask Let us now turn to `Cc1cc(-c2c[nH]c3ncc(-c4cc(C)c5c(c4)CN(C)CC5)nc23)ccc1C(=O)N1CC2(COC2)C1`
-- reply b2

-- ask // repeat for `[2H]C([2H])([2H])N(C(=O)c1ccc(-c2c[nH]c3ncc(-c4cc(C)c5c(c4)CCN(C)C5)nc23)cc1C)C([2H])([2H])[2H]` and report
-- reply b1

-- ask Also `Cc1cc(-c2cnc3[nH]cc(-c4ccc(C(=O)N(C)C[C@@H](C)O)cc4)c3n2)cc2c1CCN(CCN1CCOCC1)C2` ?
-- reply b1

-- ask Let us now turn to `CN[C@H]1CCN(C(=O)c2ccc(-c3c[nH]c4ncc(-c5cc(C)c6c(c5)CN(C)CC6)nc34)cc2)C1`
-- reply b0

* * *

study system: HPK1 kinase (aa1-346, Life Technologies) (Homo sapiens, UniProt Q92918)
Sequence (Q92918 1-346): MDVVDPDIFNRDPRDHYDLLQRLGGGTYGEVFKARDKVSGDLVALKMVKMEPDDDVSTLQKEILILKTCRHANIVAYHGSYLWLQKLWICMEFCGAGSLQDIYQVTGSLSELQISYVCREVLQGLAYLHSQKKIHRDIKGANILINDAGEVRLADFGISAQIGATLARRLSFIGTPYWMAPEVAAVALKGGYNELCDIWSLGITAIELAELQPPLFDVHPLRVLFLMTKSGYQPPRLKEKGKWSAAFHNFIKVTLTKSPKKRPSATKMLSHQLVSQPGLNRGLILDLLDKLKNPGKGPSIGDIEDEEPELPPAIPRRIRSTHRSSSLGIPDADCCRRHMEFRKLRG
endpoint name: pIC50
API: returns pIC50 as number; meaning -log10 of concentration in mol/L.

-- ask Could you tell me which pIC50 is on file for Cc1cc(-c2c[nH]c3ncc(-c4cc(C)c5c(c4)CN(CCC(=O)NC4CC4)CC5)nc23)ccc1C(=O)N(C)C [Example 43] ?
-- reply 7.43

-- ask Next compound up: Cc1cc(-c2cnc3[nH]cc(-c4ccc(C(=O)N(C)CC(C)(C)O)cc4)c3n2)cc2c1CCN(C)C2 [Example 38]
-- reply 7.19

-- ask Repeat for the following compound: CN1CCc2c(cc(-c3cnc4[nH]cc(-c5ccc(C(=O)N(C)C)cc5)c4n3)cc2C(F)F)C1 [Example 95]
-- reply 7.15

-- ask Item: Cc1cc(-c2cnc3[nH]cc(-c4ccc(C(=O)N(C)C[C@@H]5CCOC5)cc4)c3n2)cc2c1CCN(CCN1CCC(C)(O)CC1)C2 [Example 36]
-- reply 7.41
